# assay summary: Cytotoxicity against mouse P388 cells after 2 days by sulforhodamine B assay
# Type: cell-based
# experimental parameters: read-out: ED50
recorded metric: log10(CC50 at 48 h) (log10 of the value in µg/mL)
Quick note: numbers are log10 of CC50 at 48 h, with µg/mL as the unit.

Request: GET /values?readout=log10(CC50 at 48 h)&item= "COc1ccc2cc1Oc1ccc(cc1)C[C@H]1c3cc(c(OC)cc3CCN1C)Oc1c(O)c(OC)cc3c1[C@@H](C2)NCC3"
Response: -1.00

Request: Input "COc1ccc2cc1Oc1ccc(cc1)C[C@H]1c3c(cc(OC)c4c3Oc3cc5c(cc3O4)CCN=C5C2)CCN1C"
Response: 0.49

Request: Input "COc1ccc2cc1Oc1ccc(cc1)C[C@H]1c3c(cc4c(c3Oc3cc5c(cc3OC)CCN(C)[C@@H]5C2)OCO4)CCN1C"
Response: -0.52

Request: Input "COc1ccc2cc1Oc1ccc(cc1)C[C@H]1c3c(cc4c(c3Oc3cc5c(cc3OC)CCN[C@@H]5C2)OCO4)CCN1C"
Response: -1.00

Request: Input "COc1ccc2cc1Oc1ccc(cc1)C[C@H]1c3cc(c(OC)cc3CCN1C)Oc1c(OC)c(OC)cc3c1[C@@H](C2)NCC3"
Response: 0.67

Request: Input OC(c1cc(C(F)(F)F)nc2c(C(F)(F)F)cccc12)C1CCCCN1 (configuration not stated)
Response: -0.70

Request: Input "COc1ccc2cc1Oc1ccc(cc1)C[C@H]1c3c(cc(OC)c(OC)c3Oc3cc4c(cc3OC)CCN[C@@H]4C2)CCN1C"
Response: 0.54
